This listing pairs binders with measured Maximum mean fluorescence intensity.
Molecular target: monkey MSLN full-length protein expressed on HEK293T cells (HEK293T-monkey MSLN) (monkey)
Test: FACS on HEK293T-monkey MSLN cells

BINDER: S009-F8-13.8 (antibody, human IgG1, kappa, V domains shown) VH: EFQLQQSGPELVKPGASVKISCKASGYSFTDYNMNWVKQTNGKSLEWIGIINPNYGTSSYNQKFKGKATLTVDQSSSTAYMQLNSLTSEDSAVYYCARVGRDNSGFDYWGQGTTLTVSS VL: QIVLTQSPAIMSASPGEKVTMTCSASSSVSYMYWYQQKPGSSPRLLIYDTSNLASGVPVRFSGSGSGTSYSLTISRMEAEDAATYYCQQWSSYPPTFGSGTELEIKR
Maximum mean fluorescence intensity: 20500
//
BINDER: S009-F8-24.14 (antibody, human IgG1, kappa, V domains shown) VH: EFQLQQSGPELVKPGASVKISCKASGYSFTDYNMNWVKLSNGKSLEWIGVIIPNYGTSSYNQKFKGKATLTVDQSSSTAYMQLNSLTSEDSAVYYCARWDNYYGSSLDYWGQGTTLTVSS VL: DIVMTQSQKFMSTTVGDRVSITCKASQNVGTAVAWYQQKPGQSPKLLIYSASNRYTGVPDRFTGSGSGTDFILTISNMQSEDLADYFCQQYSSYPLTFGAGTKLELKR
Maximum mean fluorescence intensity: 105000
//
BINDER: S009-F8-18.9 (antibody, human IgG1, kappa, V domains shown) VH: EFQLQQSGPELVKPGASVKISCKASGYSFTDYNMNWVKQSNGKSLEWIGIINPNYGTTSYNQKFKGRATLTVDQSSSTAYVQLNSLTSEDSAVYYCARGGYDNEAMDYWGQGTSVTVSS VL: QIVLTQSPAIMSASPGEKVTMTCSASSSVSYMHWYQQKSGTSPKRWIYDTSKLASGVPARFSGSGSGTSYSLTISSMEAEDAATYYCQQWSSNPPTFGAGTKLELKR
Maximum mean fluorescence intensity: 24900
